Kindly supply the reported Ki values for the records listed here.
Molecular target: Cell division cycle 7-related protein kinase (Homo sapiens);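 further: value obtained from a kinome-wide kinase panel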
Sequence (O00311 whole entry): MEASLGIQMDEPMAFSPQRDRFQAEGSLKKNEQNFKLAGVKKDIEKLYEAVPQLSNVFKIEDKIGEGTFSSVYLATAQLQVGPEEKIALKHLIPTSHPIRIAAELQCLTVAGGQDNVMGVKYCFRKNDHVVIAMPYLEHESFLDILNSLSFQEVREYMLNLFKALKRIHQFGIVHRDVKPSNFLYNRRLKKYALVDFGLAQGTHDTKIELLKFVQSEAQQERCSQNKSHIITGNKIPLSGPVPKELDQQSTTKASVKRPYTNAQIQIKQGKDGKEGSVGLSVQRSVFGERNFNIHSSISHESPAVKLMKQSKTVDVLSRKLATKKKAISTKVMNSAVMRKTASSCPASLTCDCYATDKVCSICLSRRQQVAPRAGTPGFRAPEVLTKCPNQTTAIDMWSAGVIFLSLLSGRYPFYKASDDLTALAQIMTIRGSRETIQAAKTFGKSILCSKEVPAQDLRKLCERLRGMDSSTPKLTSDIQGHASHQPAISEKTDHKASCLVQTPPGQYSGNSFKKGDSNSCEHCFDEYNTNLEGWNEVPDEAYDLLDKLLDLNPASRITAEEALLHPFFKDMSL
Assay type: functional
Activity calls are given as the source filed them.

Endpoint output: Ki of CCCCOc1cc(-c2ccncc2)cc2[nH]nc(N)c12 . Value?
15.8 nM (active)

Endpoint output: Ki of Fc1cccc(-c2c[nH]c3ncccc23)c1 . Value?
63.1 nM (active)

Endpoint output: Ki of CCOC(=O)c1c[nH]n2c(=O)cc(-c3ccncc3)nc12 . Value?
5.01 nM (active)

Endpoint output: Ki of C=CCNc1cc(-c2c[nH]c3ncccc23)cc(Cl)n1 . Value?
0.794 nM (active)

Endpoint output: Ki of O=C1Nc2ccccc2Nc2cc(-c3ccncc3Cl)ccc21 . Value?
20 nM (active)

----------
Molecular target: Heat shock factor protein 1 (Mus musculus)
Sequence (P38532 whole entry): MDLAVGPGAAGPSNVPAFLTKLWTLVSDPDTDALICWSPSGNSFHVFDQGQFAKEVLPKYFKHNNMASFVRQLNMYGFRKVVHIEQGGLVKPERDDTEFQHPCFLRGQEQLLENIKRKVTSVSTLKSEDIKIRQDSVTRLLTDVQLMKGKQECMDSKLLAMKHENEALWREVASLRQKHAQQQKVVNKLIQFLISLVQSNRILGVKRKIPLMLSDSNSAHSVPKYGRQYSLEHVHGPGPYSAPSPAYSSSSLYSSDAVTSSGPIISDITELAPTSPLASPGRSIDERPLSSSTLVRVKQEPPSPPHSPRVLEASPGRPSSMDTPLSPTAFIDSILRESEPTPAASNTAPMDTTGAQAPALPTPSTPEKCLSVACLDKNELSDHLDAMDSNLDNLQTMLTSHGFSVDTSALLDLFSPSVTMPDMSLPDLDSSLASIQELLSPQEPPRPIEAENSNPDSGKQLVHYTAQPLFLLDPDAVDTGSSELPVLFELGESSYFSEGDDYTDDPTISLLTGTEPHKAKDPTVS
Experiment: enhancement of HSF1-driven luciferase signal – cell-based, NIH3T3, luminescence, dose retest, confirmation (AID 435004);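 further: stress induced by proteasome inhibitor MG132 added 30 min after compound; luciferase reporter driven by HSF1 response element in NIH3T3 cells; actives raise luminescence as potentiators of the MG132 stress response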
Type: functional
Active and inactive are the calls of the source.
Response enum: active, inactive

Tell me the assay call for COC(=O)C(C)Sc1ncnc2c1nnn2-c1ccc(F)cc1 (configuration not stated) please.
active

Tell me the assay call for C=CCn1c(C)cc(C(=O)CSc2nc(N)cc(N)n2)c1C please.
inactive

Tell me the assay call for CC/C(=N/Cc1ccc(Cl)c(Cl)c1)c1nc(-c2ccco2)oc1O please.
active

Tell me the assay call for COc1ccc(NC(=O)C(NCC(C)C)c2ccccc2)cc1Cl (configuration not stated) please.
inactive

Tell me the assay call for CC(=O)Nc1ccc(N2C(=O)C3C4CC(=O)C(c5ccccc54)C3C2=O)cc1 (configuration not stated) please.
inactive

Tell me the assay call for Cc1c(C(=O)OCC2CCCO2)[nH]c2c1C(=O)CC(c1ccco1)C2 (configuration not stated) please.
inactive

Tell me the assay call for Cc1nc(C(=N)NOC(=O)Cc2ccccc2)no1 please.
inactive

Tell me the assay call for Nc1c(-c2ccsc2)cnc2ncnn12 please.
inactive

Tell me the assay call for CN=C(S)NCCC(c1ccccc1)c1ccccc1 please.
inactive

Tell me the assay call for CCCSc1nnc2n(-c3ccccc3OC)c(=O)c3c4c(sc3n12)CCC4 please.
inactive

Tell me the assay call for COc1ccc(/C=C(\C#N)c2c[nH]c3ccccc23)cc1 please.
active

Tell me the assay call for CC(=O)c1ccc(N2CCN(C(=O)c3[nH]nc4ccccc34)CC2)cc1 please.
inactive

Tell me the assay call for Cc1cc(C)n(-c2nc3ccccc3nc2N2CCN(C(=O)c3ccc(F)cc3)CC2)n1 please.
inactive

Tell me the assay call for O=c1[nH]c2ccccc2c2cn(-c3ccccc3)nc12 please.
active

Tell me the assay call for CCOc1ccc2ncc(S(=O)(=O)c3ccc(C)cc3)c(N3CCC4(CC3)OCCO4)c2c1 please.
inactive

Tell me the assay call for Cc1ccc(Cl)c2c(C3=NC(=S)NC3=O)c(O)[nH]c12 please.
inactive

Tell me the assay call for COc1ccc(OC)c(S(=O)(=O)Nc2ccccc2O)c1 please.
inactive

Tell me the assay call for CC(=O)C1=C(O)C(=O)N(c2nccs2)C1c1ccccc1 (configuration not stated) please.
inactive

Tell me the assay call for COc1ccc(CCNCc2cc(C)n(-c3ccc(OC)cc3)c2C)cc1 please.
inactive

Tell me the assay call for CN(C)c1nc(N)nc(CSc2nnnn2-c2cccc3ccccc23)n1 please.
inactive

Tell me the assay call for COc1ccc(-c2nnc3ccc(SCC(=O)NCC4CCCO4)nn23)cc1 (configuration not stated) please.
inactive

----------
Kindly supply the reported AC50 values for the records listed here.

For the record Cn1c(=O)cnc2cnc(Nc3ccccc3)nc21 , what value of AC50 is listed for Cytochrome P450 2C9 (Homo sapiens, UniProt P11712)?
25.1 µM (inconclusive)

For the record c1ccc(Cc2nnc(Sc3ccccc3)c3ccccc23)cc1 , what value of AC50 is listed for Cytochrome P450 2C9 (Homo sapiens, UniProt P11712)?
25.1 µM (inconclusive)

For the record COc1ccc(N2CCN(Cc3nc4c(c(=O)[nH]c(=O)n4C)n3CCCc3ccccc3)CC2)cc1 , what value of AC50 is listed for Cytochrome P450 2C9 (Homo sapiens, UniProt P11712)?
39.8 µM (inconclusive)

For the record Cc1ccc(NC(=O)/C(=C\c2cccc([N+](=O)[O-])c2)NC(=O)c2cccs2)cc1 , what value of AC50 is listed for Cytochrome P450 2C9 (Homo sapiens, UniProt P11712)?
39.8 µM (inconclusive)

----------
Biological target: Beta Lactamase (Pseudomonas aeruginosa, UniProt Q932Y6)
Sequence (Q932Y6 whole entry): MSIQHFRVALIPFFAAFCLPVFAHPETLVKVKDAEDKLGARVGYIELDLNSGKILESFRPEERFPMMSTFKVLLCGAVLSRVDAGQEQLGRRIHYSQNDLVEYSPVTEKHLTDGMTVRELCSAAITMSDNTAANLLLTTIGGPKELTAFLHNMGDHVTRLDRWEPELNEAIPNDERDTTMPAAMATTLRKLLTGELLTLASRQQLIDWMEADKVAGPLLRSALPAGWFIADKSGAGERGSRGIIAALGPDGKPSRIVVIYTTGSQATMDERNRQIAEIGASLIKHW
Assay: BLA reporter interference, concentration series – BLA reporter cells, FRET fluorescence, artefact control for TLR9-MyD88 binding inhibitor project, dose response (AID 588341);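 further: cell based assay in CHO-K1 cells stably expressing beta-lactamase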
Type: cell-based
Activity calls are given as the source filed them.
Response enum: 1 = active, 0 = inactive

Tell me the assay call for CS(=O)(=O)c1ncc(Cl)c(C(=O)Nc2ccc3ccccc3c2)n1 please.
1

Tell me the assay call for Cc1ccccc1CS(=O)(=O)c1ncc(Cl)c(C(=O)Nc2ccc(F)cc2)n1 please.
1

Tell me the assay call for CCOC(=O)COc1ccccc1/C=C\[N+](=O)[O-] please.
0

Tell me the assay call for CN1C(=O)/C(=N\CCc2ccccc2)c2c3ccccc3c(O)c3cccc1c23 please.
1

Tell me the assay call for Cn1c(-c2c(N)n(-c3ccccc3)c3nc4ccccc4nc23)nc2ccccc21 please.
1

Tell me the assay call for O=S(=O)(/C=C/C=C/S(=O)(=O)c1ccccc1)c1ccccc1 please.
0

Tell me the assay call for S=c1sc2c(Cl)ncnc2n1-c1ccccc1 please.
0

----------
Kindly supply the reported IC50 values for the records listed here.
Molecular target: Phospholipase A2 (Homo sapiens, UniProt P04054);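 further: confirmatory dose-response counterscreen on phospholipase A2, testing hits that came from an ultra-high-throughput screen for ATG4B inhibitors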
Sequence (P04054 whole entry): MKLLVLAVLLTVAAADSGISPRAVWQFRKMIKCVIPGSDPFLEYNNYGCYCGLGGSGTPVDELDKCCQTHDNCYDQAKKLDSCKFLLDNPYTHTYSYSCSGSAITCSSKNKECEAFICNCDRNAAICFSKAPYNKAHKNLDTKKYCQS
Assay type: functional
Calls of active or inactive are those of the source.

For the record O=C1NC(=S)S/C1=C\c1cc(Cl)cc(Cl)c1O , what value of IC50 is listed for Phospholipase A2 (Homo sapiens, UniProt P04054)?
14.8 µM (active)

For the record Cc1cccc2c1N(CCOc1ccc(C(C)(C)C)cc1)C(=O)C2=O , what value of IC50 is listed for Phospholipase A2 (Homo sapiens, UniProt P04054)?
4.75 µM (active)

For the record Cc1cccc(N=C(S)Nc2ccc(Oc3ccccc3)cc2)n1 , what value of IC50 is listed for Phospholipase A2 (Homo sapiens, UniProt P04054)?
16.8 µM (active)

For the record Clc1ccccc1CSc1nnc(-c2ccco2)c(-c2ccco2)n1 , what value of IC50 is listed for Phospholipase A2 (Homo sapiens, UniProt P04054)?
7.53 µM (active)

For the record Fc1ccc(C2c3[nH]c4ccccc4c3CCN2Cc2cccn2-c2ncccn2)cc1 (stereo unspecified) , what value of IC50 is listed for Phospholipase A2 (Homo sapiens, UniProt P04054)?
15.5 µM (active)

For the record COc1cccc(/C=N/NC(=O)c2[nH]c(C)c(C(=O)N/N=C/c3cccc(OC)c3O)c2C)c1O , what value of IC50 is listed for Phospholipase A2 (Homo sapiens, UniProt P04054)?
9.88 µM (active)

----------
Molecular target: BDNF/NT-3 growth factors receptor (Homo sapiens);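 further: NTRK2 measured as one member of a broad kinome-wide kinase profiling panel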
Sequence (Q16620 whole entry): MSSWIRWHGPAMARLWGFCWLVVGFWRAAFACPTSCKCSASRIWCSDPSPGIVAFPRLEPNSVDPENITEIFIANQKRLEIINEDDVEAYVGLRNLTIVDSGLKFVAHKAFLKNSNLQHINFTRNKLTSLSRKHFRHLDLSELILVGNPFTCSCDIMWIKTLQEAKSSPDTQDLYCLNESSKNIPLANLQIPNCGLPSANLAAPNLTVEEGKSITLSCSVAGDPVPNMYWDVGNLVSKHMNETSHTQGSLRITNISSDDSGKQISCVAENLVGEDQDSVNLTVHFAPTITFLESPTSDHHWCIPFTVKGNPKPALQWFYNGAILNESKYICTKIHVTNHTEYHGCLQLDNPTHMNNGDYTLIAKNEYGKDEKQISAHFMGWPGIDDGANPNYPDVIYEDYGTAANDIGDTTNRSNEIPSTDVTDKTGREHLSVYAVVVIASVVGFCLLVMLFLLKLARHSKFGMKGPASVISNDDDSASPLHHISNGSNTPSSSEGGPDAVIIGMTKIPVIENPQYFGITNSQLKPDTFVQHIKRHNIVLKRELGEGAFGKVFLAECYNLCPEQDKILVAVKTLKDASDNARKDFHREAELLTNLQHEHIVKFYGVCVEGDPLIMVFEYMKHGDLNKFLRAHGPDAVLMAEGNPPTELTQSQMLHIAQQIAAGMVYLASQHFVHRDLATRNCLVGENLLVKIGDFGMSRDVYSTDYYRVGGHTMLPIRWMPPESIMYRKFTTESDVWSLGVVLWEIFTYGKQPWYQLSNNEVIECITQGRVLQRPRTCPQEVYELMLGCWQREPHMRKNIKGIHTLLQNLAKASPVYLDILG
Type: functional
Active and inactive are the calls of the source.
Kindly supply the reported Ki values for the records listed here.

Endpoint output: Ki of O=C1Cc2cc(-c3ccccc3)cnc2N1 . Value?
100000 nM (active)

Endpoint output: Ki of NC(COc1cncc(-c2ccc3c(c2)C(=Cc2ccc[nH]2)C(=O)N3)c1)Cc1ccccc1 (centres undefined) . Value?
5.01 nM (active)

Endpoint output: Ki of O=C(Nc1ccccc1N1CCCC1)c1ccc2ccccc2n1 . Value?
631 nM (active)

Endpoint output: Ki of O=C1Nc2cc(-c3ccc(O)cc3)ccc2C1=Cc1ccc[nH]1 . Value?
631 nM (active)

----------
Target chain: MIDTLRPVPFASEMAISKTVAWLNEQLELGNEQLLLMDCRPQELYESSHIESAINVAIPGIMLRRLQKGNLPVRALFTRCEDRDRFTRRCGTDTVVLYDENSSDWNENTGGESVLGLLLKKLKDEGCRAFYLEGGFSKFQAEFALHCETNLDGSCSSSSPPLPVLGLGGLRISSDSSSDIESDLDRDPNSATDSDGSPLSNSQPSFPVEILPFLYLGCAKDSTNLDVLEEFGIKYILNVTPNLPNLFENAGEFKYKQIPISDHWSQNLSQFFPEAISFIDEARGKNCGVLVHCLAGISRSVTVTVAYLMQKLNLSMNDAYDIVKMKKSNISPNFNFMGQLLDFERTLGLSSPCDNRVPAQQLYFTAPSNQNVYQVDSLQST
Activity calls are given as the source filed them.
Response enum: Y = active, N = inactive

Tell me the assay call for Clc1ccccc1CSc1nnc(-c2ccco2)c(-c2ccco2)n1 please.
Y

Tell me the assay call for O=C(O)C1Nc2c(cccc2S(=O)(=O)c2ccccc2)C2C=CCC12 (centres undefined) please.
Y

Tell me the assay call for O=C(O)C1Nc2ccc([N+](=O)[O-])cc2C2C=CCC12 (centres undefined) please.
Y

Tell me the assay call for Cc1cc(O)c2c(c1)C1C=CCC1C(C(=O)O)N2 (centres undefined) please.
N
